target: human V1a receptor (Homo sapiens, UniProt P37288); construct: expressed in transfected cells; host or cells: CHO cells (G418-selected hV1a cell line); test: Vasopressin V1a receptor binding assay (3H-AVP competition, CHO cells)
Sequence (P37288 whole entry): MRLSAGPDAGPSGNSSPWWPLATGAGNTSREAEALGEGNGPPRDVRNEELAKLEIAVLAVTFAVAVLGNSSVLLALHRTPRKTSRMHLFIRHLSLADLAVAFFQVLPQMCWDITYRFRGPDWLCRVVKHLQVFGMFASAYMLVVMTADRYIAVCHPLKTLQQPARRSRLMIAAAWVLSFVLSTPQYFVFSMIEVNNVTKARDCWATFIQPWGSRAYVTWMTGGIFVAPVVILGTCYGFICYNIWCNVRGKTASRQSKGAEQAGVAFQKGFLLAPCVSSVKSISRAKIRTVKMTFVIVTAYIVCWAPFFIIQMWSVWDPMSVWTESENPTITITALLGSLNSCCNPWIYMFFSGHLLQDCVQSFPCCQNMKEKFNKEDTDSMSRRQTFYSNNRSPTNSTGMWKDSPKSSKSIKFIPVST
Threshold-based label: Ki under 0.01 µM gives Yes, Ki not under 0.01 µM gives No.

INSERT INTO assay_data (compound, experimentaltarget, class) VALUES
  ('CCN(C(=O)N1CCCN(c2ncccc2C(F)(F)F)CC1)c1ccc(OC)cc1', 'human V1a receptor (Homo sapiens, UniProt P37288)', 'No'),
  ('COc1ccc(N(CC2CC2)C(=O)N2CCN(c3ccccc3C)CC2)cc1', 'human V1a receptor (Homo sapiens, UniProt P37288)', 'Yes'),
  ('Cc1ccccc1N1CCN(C(=O)N(CC2CC2)CC2CCCO2)CC1 (stereo not drawn)', 'human V1a receptor (Homo sapiens, UniProt P37288)', 'No'),
  ('COc1ccccc1N1CCN(C(=O)N(CC2CC2)c2ccc(OC(F)(F)F)cc2)CC1', 'human V1a receptor (Homo sapiens, UniProt P37288)', 'No'),
  ('COc1ccc(N(CC2CC2)C(=O)C2CCN(Cc3ccccc3C(F)(F)F)C2)cc1 (stereo not drawn)', 'human V1a receptor (Homo sapiens, UniProt P37288)', 'No'),
  ('Cc1ccccc1N1CCN(C(=O)N(CC2CC2)c2ccc(OC(F)(F)F)cc2)CC1', 'human V1a receptor (Homo sapiens, UniProt P37288)', 'No'),
  ('CCN(C(=O)N1CCN(c2ncccc2C#N)CC1)c1ccc(OC)cc1', 'human V1a receptor (Homo sapiens, UniProt P37288)', 'No'),
  ('COc1ccc(N(CC2CC2)C(=O)N2CCN(c3ncc(Cl)cc3Cl)CC2)cc1', 'human V1a receptor (Homo sapiens, UniProt P37288)', 'Yes');

Provenance of the data: patent US20150376198A1
